Readings of TGI for the listed molecules
Tested on: OVCAR-8 ovarian
measurement_protocol: NCI tumour cell line growth inhibition, 48 h

# molecule, observed
measured = [
    ("O=C(/C=C1\\C[C@H]2C=Nc3ccccc3C(=O)N2C1)NCCCNC(=O)/C=C1\\C[C@H]2C=Nc3ccccc3C(=O)N2C1", "33.2 µM"),
    ("CC(=O)c1cc2c(c(O)c1C)C(=O)C(=O)c1c(O)cccc1-2", "0.936 µM"),
]

stdin: What value of TGI has been recorded for this entry: CCOC(=O)c1cc(NC(=O)N(CCC#N)CCN(C(=O)N[C@@H](Cc2ccccc2)C(=O)N[C@@H](CC(C)C)C(=O)NC)c2ccccc2)ccc1OC
stdout: > 100 µM

stdin: What value of TGI has been recorded for this entry: COc1ccc(C=Nc2c(O)ccc3ccccc23)cc1OC
stdout: > 100 µM

stdin: What value of TGI has been recorded for this entry: Cc1ccc2c(c1)C(=O)c1[nH]c3ccc(F)cc3c1CO2
stdout: 62.2 µM

stdin: What value of TGI has been recorded for this entry: COc1cc(C2c3[nH]c4ccccc4c3[C@@H](Nc3ccc(F)cc3)[C@H]3COC(=O)N23)cc(OC)c1O (stereo not given in full)
stdout: > 10 µM

Values were extracted from PubChem BioAssay (NCI).
